Biological target: T1, human GIP receptor (human, UniProt P48546 22-466)
T1 sequence (looked up): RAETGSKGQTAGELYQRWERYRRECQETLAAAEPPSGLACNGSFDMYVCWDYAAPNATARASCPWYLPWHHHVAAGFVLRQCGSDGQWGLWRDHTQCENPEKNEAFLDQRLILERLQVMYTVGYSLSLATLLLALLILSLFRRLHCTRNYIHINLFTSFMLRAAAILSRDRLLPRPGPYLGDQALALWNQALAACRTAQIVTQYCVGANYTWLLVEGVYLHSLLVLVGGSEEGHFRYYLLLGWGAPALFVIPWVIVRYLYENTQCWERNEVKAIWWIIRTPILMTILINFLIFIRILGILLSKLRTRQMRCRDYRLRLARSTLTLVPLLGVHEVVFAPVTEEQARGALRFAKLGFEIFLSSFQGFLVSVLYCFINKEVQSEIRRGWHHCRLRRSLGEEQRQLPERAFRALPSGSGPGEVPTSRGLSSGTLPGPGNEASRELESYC
Experiment: cell-based or functional assay
Bridges are numbered along the chain shown (N, C = ends). Where no end group is shown, it is not given here. [ ]: non-standard residue; d: D form. Aib = CC(C)(N)C(=O)O
Hi! Just check whether in vitro Activity Compared to Native Peptide (%), vs GIP is below 1%. Below gives met, equal or above gives not met.

Please review the following examples before continuing.
binder: Y[Aib]QGTFTSDYSKYLDEKRAKDFVQWLLDHHPSSGQPPPSC (bridge 16-20; not fully specified (C-terminus)) [triple agonist of SEQ ID NO: 76]
labelValue: not met

binder: Y[Aib]QGTFTSDYSKYLDEKAAKDFVQWLLDHHPSSGQPPPSC-NH2 (bridge 16-20) [triple agonist of SEQ ID NO: 77]
labelValue: not met

Q. Consider the binder Y[Aib]QGTFTSDYSKALDEKAAKDFVNWLLDQHPSSGQPPPSC (bridge 16-20; not fully specified (C-terminus); also: ring type not given here) [triple agonist of SEQ ID NO: 102] . Is its in vitro Activity Compared to Native Peptide (%), vs GIP strictly less than 1%?
A. not met

Q. Consider Y[Aib]QGTFTSDYSKCLDEKAAKEFVQWLLDHHPSSGQPPPS (bridge 16-20; not fully specified (C-terminus)) [triple agonist of SEQ ID NO: 68] . Does its in vitro Activity Compared to Native Peptide (%), vs GIP lie strictly below 1%?
A. not met

Q. # TODO verify in vitro Activity Compared to Native Peptide (%), vs GIP < 1% strictly for this binder: H[Aib]QGTFTSDYSKYLDEKRQKEFVNWLLAQC (bridge 16-20; not fully specified (C-terminus)) [triple agonist of SEQ ID NO: 56]
A. met
